These measurements were taken from patent US4260605A.

Measured Spleen weight values are reported for all entries that follow.
# System: dorsal shaved skin
# ASSAY_NAME: Rat seven-day intracutaneous skin thinning test (skin thinning and systemic effects)
# Format: in vivo, rat (male, strain CFHB)
# RUN_PARAMETERS: mean; 8 mg intracutaneous, seven days; control 788
# Experimental: Male rats strain CFHB, initial body weight 200±3 g, were used in the experiment and divided in seven groups each containing 10 animals, six groups being used for testing the compounds a-f and the seventh group serving as controls. […] At autopsy seven days later the spleen, adrenals, thymus and body weight were recorded in addition to the 4×4 cm area of treated skin. […]
Write the answer as a number in mg, unit excluded.

Which value of Spleen weight has been reported for CCCCC(=O)O[C@]1(C(=O)CO)[C@@H](C)C[C@H]2[C@@H]3CCC4=CC(=O)C=C[C@]4(C)[C@@]3(F)[C@@H](O)C[C@@]21C [f, betamethasone 17valerate] in the records? 445

Which value of Spleen weight has been reported for CCCC(=O)O[C@]1(C(=O)CC)CC[C@H]2[C@@H]3CCC4=CC(=O)CC[C@]4(C)[C@H]3[C@@H](O)C[C@@]21C in the records? 727

Which value of Spleen weight has been reported for CC1(C)O[C@@H]2C[C@H]3[C@@H]4CCC5=CC(=O)C=C[C@]5(C)[C@@]4(F)[C@@H](O)C[C@]3(C)[C@]2(C(=O)CO)O1 [h, triamcinolone acetonide] in the records? 150

Next up:
Which value of Spleen weight has been reported for CCCC(=O)O[C@]1(C(=O)CO)CC[C@H]2[C@@H]3CCC4=CC(=O)CC[C@]4(C)[C@H]3[C@@H](O)C[C@@]21C [g, hydrocortisone 17n-butyrate] in the records? 503

* * *

# Test system: dorsal shaved skin
# ASSAY_NAME: Rat seven-day intracutaneous skin thinning test (skin thinning and systemic effects)
# Format: in vivo, rat (male, strain CFHB)
# RUN_PARAMETERS: mean; 8 mg intracutaneous, seven days; control 41.5
EXPERIMENTAL_READOUT: Combined adrenal weight (mg)
Write the answer as a number in mg, unit excluded.

The examples below pair each entry with its known result.
Which value of Combined adrenal weight has been reported for CCCC(=O)O[C@]1(C(=O)CO)CC[C@H]2[C@@H]3CCC4=CC(=O)CC[C@]4(C)[C@H]3[C@@H](O)C[C@@]21C [g, hydrocortisone 17n-butyrate] in the records? 34.7

Which value of Combined adrenal weight has been reported for CCCCC(=O)O[C@]1(C(=O)CO)[C@@H](C)C[C@H]2[C@@H]3CCC4=CC(=O)C=C[C@]4(C)[C@@]3(F)[C@@H](O)C[C@@]21C [f, betamethasone 17valerate] in the records? 21.5

Which value of Combined adrenal weight has been reported for CC1(C)O[C@@H]2C[C@H]3[C@@H]4CCC5=CC(=O)C=C[C@]5(C)[C@@]4(F)[C@@H](O)C[C@]3(C)[C@]2(C(=O)CO)O1 [h, triamcinolone acetonide] in the records? 17.4

Next up:
Which value of Combined adrenal weight has been reported for CCCC(=O)O[C@]1(C(=O)CC)CC[C@H]2[C@@H]3CCC4=CC(=O)CC[C@]4(C)[C@H]3[C@@H](O)C[C@@]21C in the records? 36.3

* * *

Measured Thymus weight values are reported for all entries that follow.
# Test system: dorsal shaved skin
# ASSAY_NAME: Rat seven-day intracutaneous skin thinning test (skin thinning and systemic effects)
# Type: in vivo, rat (male, strain CFHB)
# RUN_PARAMETERS: mean; 8 mg intracutaneous, seven days; control 612
Write the answer as a number in mg, unit excluded.

Which value of Thymus weight has been reported for CCCCC(=O)O[C@]1(C(=O)CO)[C@@H](C)C[C@H]2[C@@H]3CCC4=CC(=O)C=C[C@]4(C)[C@@]3(F)[C@@H](O)C[C@@]21C [f, betamethasone 17valerate] in the records? 96

Which value of Thymus weight has been reported for CCCC(=O)O[C@]1(C(=O)CO)CC[C@H]2[C@@H]3CCC4=CC(=O)CC[C@]4(C)[C@H]3[C@@H](O)C[C@@]21C [g, hydrocortisone 17n-butyrate] in the records? 96

Which value of Thymus weight has been reported for CCCC(=O)O[C@]1(C(=O)CC)CC[C@H]2[C@@H]3CCC4=CC(=O)CC[C@]4(C)[C@H]3[C@@H](O)C[C@@]21C in the records? 533

Next:
Which value of Thymus weight has been reported for CC1(C)O[C@@H]2C[C@H]3[C@@H]4CCC5=CC(=O)C=C[C@]5(C)[C@@]4(F)[C@@H](O)C[C@]3(C)[C@]2(C(=O)CO)O1 [h, triamcinolone acetonide] in the records? 65
